ASSAY SYSTEM: Neurogenic locus notch homolog protein 3 (Homo sapiens) (UniProt Q9UM47)
Sequence (Q9UM47 whole entry, looked up): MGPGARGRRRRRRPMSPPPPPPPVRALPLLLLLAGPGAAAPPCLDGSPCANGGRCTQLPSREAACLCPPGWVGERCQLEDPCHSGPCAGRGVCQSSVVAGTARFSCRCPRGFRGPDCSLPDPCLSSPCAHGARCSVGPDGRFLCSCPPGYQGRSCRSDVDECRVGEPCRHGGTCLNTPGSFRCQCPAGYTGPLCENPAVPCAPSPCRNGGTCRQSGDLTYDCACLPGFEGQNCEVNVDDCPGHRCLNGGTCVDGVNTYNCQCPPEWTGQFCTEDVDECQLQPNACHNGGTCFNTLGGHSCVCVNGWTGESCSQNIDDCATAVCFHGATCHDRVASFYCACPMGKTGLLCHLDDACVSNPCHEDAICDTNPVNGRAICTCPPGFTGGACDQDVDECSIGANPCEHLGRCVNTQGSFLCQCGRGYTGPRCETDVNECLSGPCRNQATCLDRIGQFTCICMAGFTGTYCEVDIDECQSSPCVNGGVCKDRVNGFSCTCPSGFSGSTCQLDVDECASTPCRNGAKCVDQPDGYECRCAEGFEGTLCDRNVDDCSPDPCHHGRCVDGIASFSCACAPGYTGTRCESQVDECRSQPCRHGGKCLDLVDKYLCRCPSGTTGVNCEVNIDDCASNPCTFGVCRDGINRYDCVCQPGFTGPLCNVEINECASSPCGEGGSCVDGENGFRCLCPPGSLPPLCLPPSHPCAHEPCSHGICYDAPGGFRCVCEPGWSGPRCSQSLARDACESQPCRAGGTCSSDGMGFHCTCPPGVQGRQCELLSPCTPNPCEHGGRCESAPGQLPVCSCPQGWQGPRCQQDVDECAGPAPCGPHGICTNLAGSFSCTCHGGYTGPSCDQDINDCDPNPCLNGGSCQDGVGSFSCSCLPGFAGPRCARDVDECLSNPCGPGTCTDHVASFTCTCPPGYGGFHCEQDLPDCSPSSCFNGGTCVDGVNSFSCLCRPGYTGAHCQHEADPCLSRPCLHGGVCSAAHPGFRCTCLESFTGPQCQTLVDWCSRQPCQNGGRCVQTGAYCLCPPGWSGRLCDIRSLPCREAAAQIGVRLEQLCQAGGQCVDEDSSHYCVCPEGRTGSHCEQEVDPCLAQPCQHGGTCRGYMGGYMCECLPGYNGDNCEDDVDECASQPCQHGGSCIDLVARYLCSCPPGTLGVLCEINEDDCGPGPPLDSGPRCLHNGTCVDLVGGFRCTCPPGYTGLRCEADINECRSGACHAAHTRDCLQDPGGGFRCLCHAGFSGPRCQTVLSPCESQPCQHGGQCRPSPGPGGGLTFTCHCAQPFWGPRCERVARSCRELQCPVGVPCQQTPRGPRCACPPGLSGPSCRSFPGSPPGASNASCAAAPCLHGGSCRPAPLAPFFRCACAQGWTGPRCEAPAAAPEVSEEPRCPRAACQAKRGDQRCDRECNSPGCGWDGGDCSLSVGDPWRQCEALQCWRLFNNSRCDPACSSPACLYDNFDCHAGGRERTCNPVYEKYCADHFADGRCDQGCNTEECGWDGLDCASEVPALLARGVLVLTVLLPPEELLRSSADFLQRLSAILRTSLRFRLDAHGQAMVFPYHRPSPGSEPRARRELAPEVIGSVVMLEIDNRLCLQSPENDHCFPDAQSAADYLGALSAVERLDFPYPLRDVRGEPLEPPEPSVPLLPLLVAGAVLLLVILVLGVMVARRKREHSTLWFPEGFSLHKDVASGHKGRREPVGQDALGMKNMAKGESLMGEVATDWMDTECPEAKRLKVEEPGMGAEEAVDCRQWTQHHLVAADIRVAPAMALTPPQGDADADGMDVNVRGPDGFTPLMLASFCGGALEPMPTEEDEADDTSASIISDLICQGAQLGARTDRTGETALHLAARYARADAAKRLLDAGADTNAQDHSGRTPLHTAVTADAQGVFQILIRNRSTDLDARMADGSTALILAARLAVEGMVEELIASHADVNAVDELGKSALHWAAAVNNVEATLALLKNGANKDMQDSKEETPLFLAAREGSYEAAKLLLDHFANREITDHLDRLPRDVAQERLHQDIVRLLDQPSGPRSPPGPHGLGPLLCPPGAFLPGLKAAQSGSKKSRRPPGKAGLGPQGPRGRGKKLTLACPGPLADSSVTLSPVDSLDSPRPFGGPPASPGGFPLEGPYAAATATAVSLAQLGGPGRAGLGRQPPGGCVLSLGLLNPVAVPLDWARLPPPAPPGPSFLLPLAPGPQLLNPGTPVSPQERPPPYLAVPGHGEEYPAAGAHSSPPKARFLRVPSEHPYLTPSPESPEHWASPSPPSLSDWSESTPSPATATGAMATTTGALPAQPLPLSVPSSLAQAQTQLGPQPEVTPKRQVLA
EXPERIMENT SUMMARY: NOTCH3 binders on small-molecule microarray, primary screen, biochemical, 635/667 nm fluorescence (AID 1096)
CONDITION DETAILS: NOTCH3 binding, 635 nm fluorescence, higher = more signal
OBSERVATION TYPE: composite z-score
The answer should be written as a number, with no unit following it.

Lookup: Please look at "C=CCN1C(=O)[C@]2(O[C@H](CCn3cc([C@H](O)c4ccccc4)nn3)[C@@H]([Si](C)(C)c3ccc(OC)cc3)[C@@H]2C)c2cc(N3CCOC3=O)ccc21" and tell me its recorded composite z-score on Neurogenic locus notch homolog protein 3 (Homo sapiens) (UniProt Q9UM47).
Found: -0.583

Lookup: Please look at "COCCCNC(=O)[C@@]1(Cc2ccccc2)N=C(c2ccc(OCCCO)cc2)O[C@H]1c1ccccc1N=[N+]=[N-]" and tell me its recorded composite z-score on Neurogenic locus notch homolog protein 3 (Homo sapiens) (UniProt Q9UM47).
Found: 0.773

Lookup: Please look at "COc1ccc([Si](C)(C)[C@@H]2[C@@H](CCn3cc([C@H](O)c4ccccc4)nn3)O[C@]3(C(=O)N(C)c4c(Br)cc(C)cc43)[C@H]2C)cc1" and tell me its recorded composite z-score on Neurogenic locus notch homolog protein 3 (Homo sapiens) (UniProt Q9UM47).
Found: -0.707

====

System: Fibrinogen (Alexa647-labelled)
EXPERIMENT SUMMARY: fibrinogen binders on compound microarrays, profiling panel, artefact control for SMM control-protein annotation, biochemical, small-molecule microarray, 635/667 nm fluorescence (AID 1131);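 also: z-score merges 667 nm fluorescence with per-spot signal-to-noise over triplicate slides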
CONDITION DETAILS: fibrinogen-A647 binding fluorescence, higher = more signal
Rule: true (1) for composite z-score not less than 0.1, false (0) for anything less.

Lookup: Would you say "CC(C)(C)OC(=O)CC[C@@]1(C(=O)N2CCOCC2)N=C(c2ccc(OCCCO)cc2)O[C@@H]1c1ccccc1" shows composite z-score at minimum 0.1?
Found: true (1)

Lookup: Would you say "C=CCN1C(=O)[C@@]2(O[C@@H](CCO)[C@H]([Si](C)(C)c3ccc(OC)cc3)[C@H]2C)c2cc(N3C(=O)c4cccc5cccc3c45)ccc21" shows composite z-score at minimum 0.1?
Found: true (1)

Lookup: Would you say "C=C(/C(=C/C[C@H](OC(=O)c1ccncc1)c1cccc(OCCO)c1)c1cc(C(=O)OC)ccc1OC)C(C)C" shows composite z-score at minimum 0.1?
Found: false (0)

Lookup: Would you say "CC(C)N1C(=O)c2ccccc2[C@@H](C(=O)NCc2ccccc2)[C@@H]1c1ccc(CO)cc1" shows composite z-score at minimum 0.1?
Found: false (0)

Lookup: Would you say "CN(C)CCCC[C@@H]1NC(=O)[C@@H]2C[C@H](C(=O)NCCCCCNC(=O)CS)[C@H](c3cccc(OCCO)c3)N2C1=O" shows composite z-score at minimum 0.1?
Found: true (1)

Lookup: Would you say CC(=O)OC(C/C=C\B1OC(C)(C)C(C)(C)O1)c1ccccc1 (configuration not stated) shows composite z-score at minimum 0.1?
Found: true (1)

Lookup: Would you say "C=CCNC(=O)[C@@H]1[C@H]2C(=O)O[C@H](c3ccccc3)[C@H](c3ccccc3)N2[C@H](c2ccc(O)cc2)[C@@]12C(=O)Nc1ccc(C#Cc3ccc(OC)cc3)cc12" shows composite z-score at minimum 0.1?
Found: true (1)

====

EXPERIMENT SUMMARY: small-molecule binders of probe aNOTCH2, primary screen, biochemical, small-molecule microarray, 635/667 nm fluorescence (AID 1121);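 also: score merges feature fluorescence read at 667 nm with its signal to noise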
CONDITION DETAILS: higher = more signal
OBSERVATION TYPE: composite z-score
The answer should be written as a number, with no unit following it.

Lookup: Retrieve composite z-score measured for "NC(=O)NCC#Cc1ccc2c(c1)[C@]1(C(=O)N2)[C@H](c2ccc(OCCO)cc2)N2[C@H](c3ccccc3)[C@H](c3ccccc3)OC(=O)[C@H]2[C@@H]1C(=O)Nc1nc2ccccc2s1" and print it.
Found: -0.0629

Lookup: Retrieve composite z-score measured for CC(C)C(CO)N1C(=O)[C@@H]2[C@H]3C(=O)OCC=C[C@H]3OC23C=CCN(Cc2ccccc2)C(=O)[C@@H]13 (stereo partly specified) and print it.
Found: -0.154

Lookup: Retrieve composite z-score measured for "CCOC(=O)C[C@H]1[C@H](OC(=O)Cc2ccc3c(c2)OCO3)[C@@H](NC(=O)c2ccc3ccccc3c2)c2cc(OCCCO)ccc2N1C(=O)c1ccc2ccccc2n1" and print it.
Found: -0.0523

Lookup: Retrieve composite z-score measured for "C=CCN1C(=O)[C@@]2(O[C@@H](CCO)[C@H]([Si](C)(C)c3ccc(OC)cc3)[C@H]2C)c2cc(N3C(=O)c4cccc5cccc3c45)ccc21" and print it.
Found: -0.0956

Lookup: Retrieve composite z-score measured for "[N-]=[N+]=Nc1ccccc1[C@H]1OC(c2ccc(OCCCO)cc2)=N[C@@]1(Cc1ccccc1)C(N)=O" and print it.
Found: 0.0521

Lookup: Retrieve composite z-score measured for "C=CCN1C(=O)[C@]2(O[C@H](CCn3cc([C@H](O)c4ccccc4)nn3)[C@@H]([Si](C)(C)c3ccc(OC)cc3)[C@@H]2C)c2cc(N3CCOC3=O)ccc21" and print it.
Found: -0.201

====

EXPERIMENT SUMMARY: small-molecule microarray binders of probe aCHRDL2, primary screen, biochemical, biotinylated probe, 635/667 nm fluorescence (AID 1100)
CONDITION DETAILS: higher = more signal
Rule: Met for composite z-score not less than 0.1, Not met for anything less.

Lookup: Would you say CCCCCN1CC=CC23O[C@@H]4/C=C\CCC(C)OC(=O)C4[C@H]2C(=O)N(CCO)[C@@H]3C1=O (some centres not stated) shows composite z-score at minimum 0.1?
Found: Met

Lookup: Would you say "COc1ccc([Si](C)(C)[C@@H]2[C@@H](CC(=O)N3CCC[C@H]3CO)O[C@]3(C(=O)N(Cc4ccc(I)cc4)c4ccccc43)[C@H]2C)cc1" shows composite z-score at minimum 0.1?
Found: Not met

Lookup: Would you say "COC(=O)C(CC#Cc1ccc2c(c1)[C@]1(C(=O)N2)[C@H](C(N)=O)[C@H]2C(=O)O[C@H](c3ccccc3)[C@H](c3ccccc3)N2[C@@H]1c1ccc(O)cc1)C(=O)OC" shows composite z-score at minimum 0.1?
Found: Not met

Lookup: Would you say "C=C(/C(=C/C[C@H](OC(=O)c1ccncc1)c1cccc(OCCO)c1)c1cc(C(=O)OC)ccc1OC)C(C)C" shows composite z-score at minimum 0.1?
Found: Met

Lookup: Would you say "C[N+](C)(C)CCCC[C@@H]1NC(=O)[C@@H]2C[C@H](C(=O)NCCCCCNC(=O)CS)[C@H](c3ccc(O)cc3)N2C1=O" shows composite z-score at minimum 0.1?
Found: Met

Lookup: Would you say "CCOC(=O)C[C@H]1[C@H](OC(=O)c2ccc(-c3ccccc3)cc2)[C@@H](NC(=O)C2CCCCC2)c2cc(OCCCO)ccc2N1C(=O)c1ccc2ccccc2n1" shows composite z-score at minimum 0.1?
Found: Met

Lookup: Would you say "C=CC[C@]1(C(=O)N2CCCCC2)COC(c2ccc(OCCCO)cc2)=N1" shows composite z-score at minimum 0.1?
Found: Met

====

EXPERIMENT SUMMARY: basal RPMI8226 viability, no added stimulus, profiling panel, cell-based, calcein-AM fluorescence, 48 h, PK04 Diversity Set (AID 1166);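 also: cells grown under basal conditions without added stimulus; test concentration not given here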
CONDITION DETAILS: RPMI8226 myeloma viability, higher = more signal
Response field label: string, one of criterion met (z-score strictly below -1) or criterion not met.

Lookup: I wonder whether "COc1ccc(C#Cc2ccc3c(c2)[C@]2(C(=O)N3)[C@H](c3ccc(O)cc3)N3[C@H](c4ccccc4)[C@H](c4ccccc4)OC(=O)[C@H]3[C@@H]2C(N)=O)cc1" has z-score below -1. Can you tell?
Found: criterion met

Lookup: I wonder whether "CO[C@H]1O[C@H](CO)[C@@H](OC(=O)Nc2ccccc2)[C@H](OC(=O)Nc2ccccc2-c2ccccc2)[C@@H]1OC(=O)Nc1ccccc1-c1ccccc1" has z-score below -1. Can you tell?
Found: criterion met

Lookup: I wonder whether "COCCOC(=O)N1C(=O)[C@@]2(c3cc(C#CCNC(N)=O)ccc31)[C@H](c1ccccc1OCCO)N1[C@H](c3ccccc3)[C@H](c3ccccc3)OC(=O)[C@H]1[C@@H]2C(=O)Nc1nc2ccccc2s1" has z-score below -1. Can you tell?
Found: criterion not met

Lookup: I wonder whether NC(=O)N1C(=O)C2C(C1=O)C1C=C(c3ccc(CO)cc3)C2C(C2CC2)N1Cc1cc2c(cc1Br)OCO2 (configuration not stated) has z-score below -1. Can you tell?
Found: criterion met

Lookup: I wonder whether "C=CCC1(CC=C)C[C@H]2CO[C@H](c3ccc(OC)cc3)N2C1=O" has z-score below -1. Can you tell?
Found: criterion not met

Lookup: I wonder whether "O=C1c2ccccc2C(=O)c2cc([C@H]3Oc4ccccc4S(=O)(=O)N4CCC[C@@H]34)ccc21" has z-score below -1. Can you tell?
Found: criterion not met

Lookup: I wonder whether "C=CCN1C(=O)[C@@]2(O[C@@H](CCn3cc(CCO)nn3)[C@H]([Si](C)(C)c3ccc(OC)cc3)[C@H]2C)c2cc(N3C(=O)c4cccc5cccc3c45)ccc21" has z-score below -1. Can you tell?
Found: criterion met
